- Run description: Binding affinity to Mycobacterium bovis BCG Rv3169
- Parameters: species or system Mycobacterium tuberculosis variant bovis BCG
- Measurement context: read-out: Kd(app)
pKd: −log10 of the molar value.
Metric name: pKd

1. CN1CCN(c2ccc(NC(=O)c3cc(N(C)Cc4ccc(C(F)(F)F)cc4)ncn3)cc2)CC1: 6.16 to 6.21
